Test system: HL-60(TB) leukemia
EXPERIMENT NOTES: NCI tumour cell line growth inhibition, 48 h
Please assign a class to every record based on measured TGI, with ranges bin 1 (below 3 µM), bin 2 (3 µM to below 30 µM), bin 3 (30 µM or more)

query: // bin(item) where item = O=c1oc2ccc(F)cc2c(=O)n1-c1ccc(Cl)cc1F
result: bin 1

query: // bin(item) where item = COC(=O)C1=COC2OC3/C(=C\c4ccc(O)c(OC)c4)C(=O)OC34C=CC1C24 (stereo not given)
result: bin 2

query: // bin(item) where item = COc1cc2c(cc1OCCCCCn1c(-c3ccco3)nc3ccccc31)N=C[C@@H]1CCCN1C2=O
result: bin 1

query: // bin(item) where item = O=C(N/N=C/C=C/c1ccc([N+](=O)[O-])o1)c1ccc(Br)s1
result: bin 3

query: // bin(item) where item = NC(CCCNc1cccc(O)c1)C(=O)O (stereo not given)
result: bin 3

query: // bin(item) where item = C[N+](C)(C)C1(C(=O)[O-])CC1
result: bin 3

query: // bin(item) where item = O=c1c2ccccc2c2c1c1c3ccccc3c(=O)c1c1c3ccccc3c(=O)c21
result: bin 3

query: // bin(item) where item = CCn1c(-c2ccccc2)nc2c1C(=O)c1ccccc1C2=O
result: bin 3

query: // bin(item) where item = CCC[CH2][Sn]1([CH2]CCC)[O]C(=O)c2cccc(OC)c2[O]1
result: bin 1

query: // bin(item) where item = N#CC(C#N)=Cc1ccc(C=C2SC3=C(SCCS3)S2)s1
result: bin 2

query: // bin(item) where item = CC1CC(=O)C(CC(=O)O)C1C(C(=O)C(=O)Nc1c(C#N)cccc1[N+](=O)[O-])[N+](=O)[O-] (stereo not given)
result: bin 3

query: // bin(item) where item = COc1cc(/C=C/C(=O)C(C(=O)/C=C/c2ccc(OC(=O)CCNc3nnc(C)s3)c(OC)c2)C(=O)CCNc2nnc(C)s2)ccc1OC(=O)CCNc1nnc(C)s1
result: bin 2

query: // bin(item) where item = O=C1Nc2ccccc2/C1=C/c1ccccc1
result: bin 3

query: // bin(item) where item = Cn1ccnc1C(=O)/C=C/c1ccc(C(=O)Nc2ccccc2O)cc1
result: bin 2

query: // bin(item) where item = O=C1OC2c3ccccc3C(=O)C2(c2ccccc2)N1c1ccccc1 (stereo not given)
result: bin 3

query: // bin(item) where item = O=c1oc2cccnc2n1CCN1CCN(c2ccc(Oc3ccccc3)cc2)CC1
result: bin 3

query: // bin(item) where item = COC(=O)c1cc2c3ccccc3n3c(=O)c4cc5cc(OC)c(N(S(=O)(=O)c6ccc(C)cc6)S(=O)(=O)c6ccc(C)cc6)cc5nc4c(n1)c23
result: bin 3

query: // bin(item) where item = O=c1[nH]c(=O)n(C2CC(O)C(CO)O2)cc1C#Cc1cc(C(F)(F)F)cc(C(F)(F)F)c1 (stereo not given)
result: bin 3

query: // bin(item) where item = CC(C)=CCc1ccc(O)c(=O)cc1C(C)C
result: bin 2

query: // bin(item) where item = COc1ccc(Cn2cnc3cc(C(=O)Nc4cccc5ccccc45)ccc32)c(OC)c1
result: bin 1

---

System: ACHN renal
EXPERIMENT NOTES: NCI tumour cell line growth inhibition, 48 h; in the data active = GI50 below about 0.43 µM; inactive = the rest
Classes to choose from: active, inactive

query: Could you check what this test reported for CC(C)(C)c1cn2cccc(C(=O)N3CCN(CC(=O)Nc4ccc(Cl)cc4C(=O)c4ccccc4Cl)CC3)c2n1 ?
result: inactive

query: Could you check what this test reported for O=C(N1CCC(CN=c2cc3n(-c4ccc(Cl)cc4)c4ccccc4nc-3cc2Nc2ccc(Cl)cc2)CC1)N1CC1 ?
result: inactive

query: Could you check what this test reported for CC1CC(C)/C(=N/NC(N)=O)C(C(O)CC2CCC(=O)NC2=O)C1 (stereo not given) ?
result: inactive

query: Could you check what this test reported for COc1cc(C(=O)/C=C/c2c(-c3ccc(F)cc3)nc3ncccn23)cc(OC)c1OC ?
result: inactive

query: Could you check what this test reported for O=C(CC(O)c1ccncc1)c1ccccc1 (stereo not given) ?
result: inactive

query: Could you check what this test reported for CCOCC(=O)N[C@H]1CCc2cc(OC(=O)COCC)c(OC)c(OC)c2-c2ccc(SC)c(=O)cc21 ?
result: active

query: Could you check what this test reported for Cn1ccnc1C(=O)/C=C/c1ccc(C(=O)Nc2ccccc2O)cc1 ?
result: inactive

query: Could you check what this test reported for COc1cc(-n2cc(-c3ccc(F)cc3)[nH]c2=S)cc(OC)c1OC ?
result: inactive

query: Could you check what this test reported for CCCCCCCCCCCCSC(=NC)NC ?
result: inactive

query: Could you check what this test reported for COc1cc(/C=C/C(=O)C(C(=O)/C=C/c2ccc(OC(=O)CCNc3nnc(C)s3)c(OC)c2)C(=O)CCNc2nnc(C)s2)ccc1OC(=O)CCNc1nnc(C)s1 ?
result: inactive

query: Could you check what this test reported for CN1C(=O)c2cc([N+](=O)[O-])ccc2[C@H]2C(=O)c3cc4c(cc3[C@H]21)OCO4 ?
result: active

query: Could you check what this test reported for O=C1/C(=C/c2ccc(Cl)cc2)CN(Cc2cn(CCNc3ccnc4cc(Cl)ccc34)nn2)C/C1=C\c1ccc(Cl)cc1 ?
result: active

query: Could you check what this test reported for O=C1/C(=C/c2ccc([N+](=O)[O-])o2)Oc2ccccc21 ?
result: inactive

query: Could you check what this test reported for Cc1cc(O)ccc1O ?
result: inactive

query: Could you check what this test reported for CCN(CC)CCCNc1nc2ccccc2c2c(=O)c3cc(Cl)ccc3sc12 ?
result: inactive

---

Test system: K-562 leukemia
EXPERIMENT NOTES: NCI tumour cell line growth inhibition, 48 h
Task for the reader: assign each of the following molecules its reported TGI.

query: Which TGI is listed for COc1cc2c3c(n(CCCNC(=O)OCC4c5ccccc5-c5ccccc54)c(=O)c2cc1OC)-c1cc2c(cc1C3=O)OCO2 ?
result: > 100 µM

query: Which TGI is listed for Cc1nn(-c2ccccc2)c2c1C(c1cc3ccccc3nc1Cl)NC(=S)N2 (stereo not drawn) ?
result: > 100 µM

query: Which TGI is listed for c1ccc2c(c1)CCN1CCc3c([nH]c4ccccc34)C21 (stereo not drawn) ?
result: 43.3 µM

query: Which TGI is listed for CC(=O)c1c(O)ccc2c(C)c(C(=O)O)oc12 ?
result: > 100 µM

query: Which TGI is listed for O=c1c2ccccc2c2c1c1c3ccccc3c(=O)c1c1c3ccccc3c(=O)c21 ?
result: > 100 µM

query: Which TGI is listed for Cc1ccc(NC(=O)COC(=O)c2cccc3c(=O)c4ccccc4[nH]c23)cc1 ?
result: > 100 µM

query: Which TGI is listed for Cc1ccc(S(=O)C[C@@]2(C(F)F)NC(=O)NC2=O)cc1 (stereo partly drawn) ?
result: > 100 µM

query: Which TGI is listed for CCOCC(=O)N[C@H]1CCc2cc(OC(=O)COCC)c(OC)c(OC)c2-c2ccc(SC)c(=O)cc21 ?
result: 0.0691 µM

query: Which TGI is listed for BrCCC[P+](c1ccccc1)(c1ccccc1)c1ccccc1 ?
result: > 100 µM

query: Which TGI is listed for CC(=O)OCC1OC(n2c3c(cc(C#N)c2=S)CCCCCC3)C(OC(C)=O)C(OC(C)=O)C1OC(C)=O (stereo not drawn) ?
result: > 100 µM

query: Which TGI is listed for CC1(C)CCCCCC(C)(CCCCCCCCCCCO)C1=O (stereo not drawn) ?
result: 31 µM

query: Which TGI is listed for O=C(N/N=C/C=C/c1ccc([N+](=O)[O-])o1)c1ccc(Br)s1 ?
result: > 100 µM

query: Which TGI is listed for C/C=C(\CCC1NCCc2c1[nH]c1ccccc21)[Si](C)(C)C (stereo not drawn) ?
result: 9.29 µM

query: Which TGI is listed for CC(=O)Nc1ccc2c(c1)C(=O)c1cccc(F)c1-2 ?
result: > 100 µM

query: Which TGI is listed for O=C1/C(=C/c2ccc([N+](=O)[O-])o2)Oc2ccccc21 ?
result: 1.97 µM

query: Which TGI is listed for CNC(=O)c1n[nH]n(Cc2ccccc2)c1=S ?
result: > 100 µM

query: Which TGI is listed for O=C1CCCC(=O)C1=C(O)CCCCCCCCCCc1ccccc1 ?
result: > 100 µM

query: Which TGI is listed for CC(C)c1ccc2c(c1)C=C1OC(=O)[C@]3(C)CCC[C@@]2(C)C13 (stereo partly drawn) ?
result: > 100 µM

query: Which TGI is listed for COc1ccc(/C=C(\C(=O)OCC(C)C)c2ccc(OC)c(OC)c2)cc1OC ?
result: > 100 µM

query: Which TGI is listed for CC1(C)O[C@H]2[C@@H]3N=C(c4ccccc4)O[C@@H]3C=C[C@H]2O1 ?
result: > 100 µM

query: Which TGI is listed for COc1ccc(-c2oc3cc(OC)c(OC)c(OC)c3c(=O)c2OC)cc1OC ?
result: > 100 µM

query: Which TGI is listed for Oc1ccccc1Nc1nc2ccccc2c2occc12 ?
result: > 100 µM

query: Which TGI is listed for NC1=NN(c2ccccc2)C2(c3ccncc3C(=O)O)C1C(N)=NN2c1ccccc1 (stereo not drawn) ?
result: > 100 µM

query: Which TGI is listed for CCN(CC)c1nc(N(C)C)c2ccc(OC)cc2n1 ?
result: 66.6 µM

query: Which TGI is listed for CC(C)=CC(O)C/C(C)=C/CC/C(C)=C/CCC1(C)C(CCCO)/C(=C(/C)C=O)CCC1(C)O (stereo not drawn) ?
result: 7.94 µM

query: Which TGI is listed for COC(=O)c1oc2c(O)c(OC)c(Br)cc2c1C ?
result: > 100 µM

query: Which TGI is listed for COc1ccc(Cn2cnc3cc(C(=O)Nc4cccc5ccccc45)ccc32)c(OC)c1 ?
result: > 100 µM

query: Which TGI is listed for NC(CCCNc1cccc(O)c1)C(=O)O (stereo not drawn) ?
result: > 100 µM

query: Which TGI is listed for N#CCC12CC=CCC1=C(O)C(=O)c1ccc(O)cc12 (stereo not drawn) ?
result: > 100 µM

query: Which TGI is listed for O=C(Nc1cccc([N+](=O)[O-])c1)c1ccc2ccccc2c1O ?
result: > 100 µM

query: Which TGI is listed for COc1cc(OC)c2cc(C(=O)O)c(=O)oc2c1 ?
result: > 100 µM

query: Which TGI is listed for NC(N)=N/N=C(/c1ccccc1)c1ccc(Cl)cc1 ?
result: > 100 µM

query: Which TGI is listed for COc1cc(C(=O)/C=C/c2c(-c3ccc(F)cc3)nc3ncccn23)cc(OC)c1OC ?
result: > 100 µM

query: Which TGI is listed for COC(=O)C1=COC2OC3/C(=C\c4ccc(O)c(OC)c4)C(=O)OC34C=CC1C24 (stereo not drawn) ?
result: 37.6 µM

query: Which TGI is listed for CCOC(=O)N[C@H]1CCc2cc(O)c(OC)c(OC)c2-c2ccc(SC)c(=O)cc21 ?
result: > 100 µM

query: Which TGI is listed for CCCC(=O)Nc1cc([N+](=O)[O-])c([N+](=O)[O-])cc1OC ?
result: > 100 µM

query: Which TGI is listed for COP(=O)(OC)C(O)/C=C(\Cl)c1ccc(Cl)cc1 (stereo not drawn) ?
result: > 100 µM

query: Which TGI is listed for Fc1ccc(NCn2nc(COc3ccccc3Cl)n(/N=C/c3ccc(-c4ccc(Cl)cc4Cl)o3)c2=S)cc1Cl ?
result: 43.6 µM

query: Which TGI is listed for CCOC(=O)/C=C(\C(=O)OCC)n1cnc2c(N)ncnc21 ?
result: 5.52 µM

query: Which TGI is listed for O=C1Nc2ccccc2/C1=C/c1cn(C(=O)c2c(Cl)cccc2Cl)c2ccccc12 ?
result: > 100 µM

query: Which TGI is listed for CC(C)=CCc1ccc(O)c(=O)cc1C(C)C ?
result: > 100 µM

query: Which TGI is listed for COc1ccc(Cn2cc3c(c2-c2ccc(O)cc2)CCc2cnoc2-3)cc1 ?
result: 16.6 µM

query: Which TGI is listed for COc1ccc(C(=O)Cn2c(C(C)=O)nc3ccccc32)cc1 ?
result: > 100 µM
